For each of the binders below, state its log10 of Kd.
Molecular target: T1, Her2 ECD (amino acids 1 to 629 of matured HER2 with C-terminal avi-tag and His-tag) (human, UniProt P04626 23-652)
T1 construct: also called purified Her2
Test: SPR, Ab captured, Her2 analyte;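 also: ProteOn XPR36 SPR, rate constants from simultaneous fit of association and dissociation sensorgrams to a 1:1 Langmuir model, buffer-channel referenced, KD taken as koff/kon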
Reminder: these figures are log10 of reported Kd, in nM before transformation.

Query string: Tell me the measured log10 of Kd of Pertuzumab HC x Pertuzumab (Tras.L3) K24R LC (antibody, V domains shown) VH: EVQLVESGGGLVQPGGSLRLSCAASGFTFTDYTMDWVRQAPGKGLEWVADVNPNSGGSIYNQRFKGRFTLSVDRSKNTLYLQMNSLRAEDTAVYYCARNLGPSFYFDYWGQGTLVTVSS VL: DIQMTQSPSSLSASVGDRVTITCRASQDVSIGVAWYQQKPGKAPKLLIYSASYRYTGVPSRFSGSGSGTDFTLTISSLQPEDFATYYCQQHYTTPPTFGQGTKVEIK , please.
Result string: 0.66

Query string: Moving on to the next binder: Pertuzumab HC x Pertuzumab (Tras.L3) R54L LC (antibody, V domains shown) VH: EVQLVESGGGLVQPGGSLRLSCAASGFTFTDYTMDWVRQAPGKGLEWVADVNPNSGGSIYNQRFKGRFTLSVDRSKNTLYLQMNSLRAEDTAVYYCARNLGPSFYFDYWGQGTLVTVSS VL: DIQMTQSPSSLSASVGDRVTITCKASQDVSIGVAWYQQKPGKAPKLLIYSASYLYTGVPSRFSGSGSGTDFTLTISSLQPEDFATYYCQQHYTTPPTFGQGTKVEIK
Result string: 0.69

Query string: Note, next up: Pertuzumab HC x Pertuzumab (Tras.L3) G32A LC (antibody, V domains shown) VH: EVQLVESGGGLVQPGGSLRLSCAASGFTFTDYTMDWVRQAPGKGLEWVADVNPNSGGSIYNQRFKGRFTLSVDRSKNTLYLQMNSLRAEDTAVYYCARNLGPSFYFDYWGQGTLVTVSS VL: DIQMTQSPSSLSASVGDRVTITCKASQDVSIAVAWYQQKPGKAPKLLIYSASYRYTGVPSRFSGSGSGTDFTLTISSLQPEDFATYYCQQHYTTPPTFGQGTKVEIK
Result string: 0.56

Query string: Try this binder next: Pertuzumab HC x Pertuzumab (Tras.L3) P96Y LC (antibody, V domains shown) VH: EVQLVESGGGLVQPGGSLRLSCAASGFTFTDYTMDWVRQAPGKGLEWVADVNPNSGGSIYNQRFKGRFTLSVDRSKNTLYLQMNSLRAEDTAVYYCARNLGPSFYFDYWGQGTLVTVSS VL: DIQMTQSPSSLSASVGDRVTITCKASQDVSIGVAWYQQKPGKAPKLLIYSASYRYTGVPSRFSGSGSGTDFTLTISSLQPEDFATYYCQQHYTTPYTFGQGTKVEIK
Result string: 0.45

Query string: Quick one: Pertuzumab HC x Pertuzumab (Tras.L3) I31T LC (antibody, V domains shown) VH: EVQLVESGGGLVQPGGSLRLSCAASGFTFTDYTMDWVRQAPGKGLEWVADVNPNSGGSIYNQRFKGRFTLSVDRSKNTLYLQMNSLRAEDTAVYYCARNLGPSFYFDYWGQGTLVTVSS VL: DIQMTQSPSSLSASVGDRVTITCKASQDVSTGVAWYQQKPGKAPKLLIYSASYRYTGVPSRFSGSGSGTDFTLTISSLQPEDFATYYCQQHYTTPPTFGQGTKVEIK
Result string: 0.61

Query string: // next record Pertuzumab HC x Pertuzumab (Tras.L3) T94Y LC (antibody, V domains shown) VH: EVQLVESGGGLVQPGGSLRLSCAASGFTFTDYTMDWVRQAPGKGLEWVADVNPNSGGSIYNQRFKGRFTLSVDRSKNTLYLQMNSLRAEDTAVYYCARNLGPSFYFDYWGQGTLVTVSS VL: DIQMTQSPSSLSASVGDRVTITCKASQDVSIGVAWYQQKPGKAPKLLIYSASYRYTGVPSRFSGSGSGTDFTLTISSLQPEDFATYYCQQHYTYPPTFGQGTKVEIK
Result string: -0.11

Query string: Also check Pertuzumab HC x Pertuzumab (Tras.L3) Y53F LC (antibody, V domains shown) VH: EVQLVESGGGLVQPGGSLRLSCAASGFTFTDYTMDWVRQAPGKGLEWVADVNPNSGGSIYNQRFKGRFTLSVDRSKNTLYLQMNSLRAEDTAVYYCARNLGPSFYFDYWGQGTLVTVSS VL: DIQMTQSPSSLSASVGDRVTITCKASQDVSIGVAWYQQKPGKAPKLLIYSASFRYTGVPSRFSGSGSGTDFTLTISSLQPEDFATYYCQQHYTTPPTFGQGTKVEIK
Result string: 0.90

Query string: Another: Pertuzumab HC x Pertuzumab (Tras.L3) I31V LC (antibody, V domains shown) VH: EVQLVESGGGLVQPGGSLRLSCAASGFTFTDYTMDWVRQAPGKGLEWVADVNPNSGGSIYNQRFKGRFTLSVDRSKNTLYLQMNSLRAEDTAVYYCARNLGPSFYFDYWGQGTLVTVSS VL: DIQMTQSPSSLSASVGDRVTITCKASQDVSVGVAWYQQKPGKAPKLLIYSASYRYTGVPSRFSGSGSGTDFTLTISSLQPEDFATYYCQQHYTTPPTFGQGTKVEIK
Result string: 0.64

Query string: How about this binder: Pertuzumab HC x Pertuzumab (Tras.L3) S30N LC (antibody, V domains shown) VH: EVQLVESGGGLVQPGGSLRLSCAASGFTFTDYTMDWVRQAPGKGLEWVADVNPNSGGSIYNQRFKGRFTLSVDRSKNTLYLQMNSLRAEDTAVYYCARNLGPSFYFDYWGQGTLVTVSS VL: DIQMTQSPSSLSASVGDRVTITCKASQDVNIGVAWYQQKPGKAPKLLIYSASYRYTGVPSRFSGSGSGTDFTLTISSLQPEDFATYYCQQHYTTPPTFGQGTKVEIK
Result string: 0.53
